Test system: Botrytis cinerea
Assay: In vivo preventive test on Botrytis cinerea (grey mould)
Settings: 500 ppm; gherkin plants sprayed 24 hours before contamination; grading 4-5 days after contamination vs control plants
QUANTITY_NAME: % of efficacy (protection) (%)
Just the number please, in %, no unit attached.

*Q* Request the reported % of efficacy (protection) associated with Cc1cnc2ccc(C3=NOC(C)(C(=O)NC(C)C)C3)cc2c1 (stereo not shown)
*A* 75

*Q* Now this one: CCOc1cnc2ccc(C3=NOC(C)(C(=O)NC(C)C)C3)cc2c1 (stereo not shown)
*A* 74

*Q* Now this one: CCCOc1cnc2ccc(C3=NOC(C)(C(=O)NCc4cn(CC)nc4C)C3)cc2c1 (stereo not shown)
*A* 79

*Q* Now this one: C#Cc1cnc2ccc(C3=NOC(C)(C(=O)NCc4noc(C)n4)C3)cc2c1 (stereo not shown)
*A* 100

*Q* Now this one: C#Cc1cnc2ccc(C3=NOC(C)(C(=O)NCc4ccc5c(c4)CCO5)C3)cc2c1 (stereo not shown)
*A* 99

*Q* Now this one: CCn1ncc(CNC(=O)C2(C)CC(c3ccc4ncc(Br)cc4c3)=NO2)c1C (stereo not shown)
*A* 97

*Q* Now this one: CCC(C)NC(=O)C1(C)CC(c2cc3cc(Br)cnc3c(F)c2F)=NO1 (stereo not shown)
*A* 93

*Q* Now this one: CC(C)NC(=O)C1(C2CC2)CC(c2ccc3ncc(Br)cc3c2)=NO1 (stereo not shown)
*A* 85

*Q* Now this one: C#Cc1cnc2ccc(C3=NOC(C)(C(=O)NC(C)(C)c4nc(C)cs4)C3)cc2c1 (stereo not shown)
*A* 100

*Q* Now this one: C#Cc1cnc2ccc(C3=NOC(C)(C(=O)NC(C)(C#N)C4CC4)C3)cc2c1 (stereo not shown)
*A* 73

*Q* Now this one: C#Cc1cnc2ccc(C3=NOC(C)(C(=O)NOC(C)C4CC4)C3)cc2c1 (stereo not shown)
*A* 89

*Q* Now this one: C#Cc1cnc2ccc(C3=NOC(C=C)(C(=O)NC(C)C)C3)cc2c1 (stereo not shown)
*A* 98

*Q* Now this one: C#Cc1cnc2c(Cl)cc(C3=NOC(C)(C(=O)NC4CCC4)C3)cc2c1 (stereo not shown)
*A* 100

*Q* Now this one: C#Cc1cnc2ccc(C3=NOC(C)(C(=O)NCc4cn(C(C)C)nc4C)C3)cc2c1 (stereo not shown)
*A* 99

*Q* Now this one: C#Cc1cnc2ccc(C3=NOC(C)(C(=O)NCc4cnn(-c5ccccc5)c4)C3)cc2c1 (stereo not shown)
*A* 92

*Q* Now this one: C#Cc1cnc2ccc(C3=NOC(C)(C(=O)NCc4ccc5ccoc5c4)C3)cc2c1 (stereo not shown)
*A* 86

*Q* Now this one: CCOCCCNC(=O)C1(C(F)F)CC(c2ccc3ncc(I)cc3c2)=NO1 (stereo not shown)
*A* 73

*Q* Now this one: CCn1cc(CNC(=O)C2(C)CC(c3cc4cc(Br)cnc4c(F)c3F)=NO2)c(C)n1 (stereo not shown)
*A* 100

*Q* Now this one: CC(NC(=O)C1(C)CC(c2ccc3ncc(Br)cc3c2)=NO1)C1CCOC1 (stereo not shown)
*A* 88

*Q* Now this one: C#Cc1cnc2ccc(C3=NOC(C)(C(=O)NCc4ccc5c(c4)OCC5)C3)cc2c1 (stereo not shown)
*A* 100

*Q* Now this one: CCC1(C(=O)NC2CC2)CC(c2ccc3ncc(Br)cc3c2)=NO1 (stereo not shown)
*A* 99

*Q* Now this one: CC1(C(=O)NCC2CCOC2)CC(c2ccc3ncc(Br)cc3c2)=NO1 (stereo not shown)
*A* 80

*Q* Now this one: C=CC1(C(=O)NCc2cn(CC)nc2C)CC(c2ccc3ncc(Br)cc3c2)=NO1 (stereo not shown)
*A* 100

*Q* Now this one: C#Cc1cnc2c(Cl)cc(C3=NOC(C)(C(=O)NCc4cn(CCC)nc4C)C3)cc2c1 (stereo not shown)
*A* 98

*Q* Now this one: C#Cc1cnc2ccc(C3=NOC(C)(C(=O)NCc4cnn(CC)c4)C3)cc2c1 (stereo not shown)
*A* 92

*Q* Now this one: C#Cc1cnc2ccc(C3=NOC(C(=O)NCCCOCC)(C(F)F)C3)cc2c1 (stereo not shown)
*A* 95

*Q* Now this one: C#Cc1cnc2ccc(C3=NOC(C)(C(=O)NCc4cccc(OC(F)(F)F)c4)C3)cc2c1 (stereo not shown)
*A* 89

*Q* Now this one: CCCn1cc(CNC(=O)C2(OC)CC(c3cc(Cl)c4ncc(Br)cc4c3)=NO2)c(C)n1 (stereo not shown)
*A* 100

*Q* Now this one: C#Cc1cnc2ccc(C3=NOC(C)(C(=O)NCc4ccc(Cl)cc4Cl)C3)cc2c1 (stereo not shown)
*A* 95

*Q* Now this one: C#Cc1cnc2ccc(C3=NOC(C)(C(=O)NCC4(C)CCCO4)C3)cc2c1 (stereo not shown)
*A* 98

*Q* Now this one: C#Cc1cnc2ccc(C3=NOC(C)(C(=O)NC4CCOCC4)C3)cc2c1 (stereo not shown)
*A* 98

*Q* Now this one: C#Cc1cnc2ccc(C3=NOC(C)(C(=O)NCc4cnn(CC)c4C)C3)cc2c1 (stereo not shown)
*A* 97

*Q* Now this one: C#Cc1cnc2c(Cl)cc(C3=NOC(C)(C(=O)NCC4COC(C)(C)O4)C3)cc2c1 (stereo not shown)
*A* 95

*Q* Now this one: CCOCCCNC(=O)C1(C(C)C)CC(c2ccc3ncc(Br)cc3c2)=NO1 (stereo not shown)
*A* 77
